Consider the following molecules and their measured fraction unbound at 6 h, 1 μM readings.
- MEASUREMENT_PROTOCOL: Free fraction in rat plasma and brain homogenate by equilibrium dialysis
- Format: in vitro ADME
- ASSAY_CONDITIONS: rat plasma, buffer pH 7.4, read-out: Rat plasma free fraction
Respond using a number only.

Reference set, count: 2
MOLECULE	fraction unbound at 6 h, 1 μM
O=C(Nc1cccnn1)[C@H]1CC12CCN(C(=O)OC(C(F)(F)F)C(F)(F)F)CC2 [Example 6]	0.055
O=C(NC1CCOCC1)[C@H]1CC12CCN(C(=O)OC(C(F)(F)F)C(F)(F)F)CC2 [Example 8]	0.427

Read the next record carefully.
Please look at this molecule and report its fraction unbound at 6 h, 1 μM: O=C(Nc1cccnc1)[C@H]1CC12CCN(C(=O)OC(C(F)(F)F)C(F)(F)F)CC2 (single isomer, unassigned) [Example 2]
0.078

Ref: patent US11434222B2
